src = ChEMBL document CHEMBL1201862

test system: A498; assay: NCI tumour cell line growth inhibition, 48 h
Calls of active or inactive are those of the source. No stated cut-off is given here; in the data, active = GI50 up to about 1.1 µM and inactive = higher.
Classes used: yes for active, no for inactive

[
  {
    "compound": "N#Cc1nc(C#N)n(S(=O)(=O)c2ccccc2)c1NS(=O)(=O)c1ccccc1",
    "category-label": "no"
  },
  {
    "compound": "COCOc1ccc(OC)cc1",
    "category-label": "no"
  },
  {
    "compound": "O=C(COc1ccc(OCC(=O)NNC2=NC(c3cc(F)c(Cl)cc3Cl)CS2)c(Cl)c1)NNC1=NC(c2cc(F)c(Cl)cc2Cl)CS1 (stereo unspecified)",
    "category-label": "no"
  },
  {
    "compound": "COc1cc2c(c(OC)c1OC)-c1ccc(SC)c(=O)cc1C(CC(=O)Oc1cccc([N+](=O)[O-])c1)C2 (stereo unspecified)",
    "category-label": "yes"
  },
  {
    "compound": "O=S(=O)(/N=c1\\[nH]c(-c2cc(O)c(O)c(O)c2)cs1)c1ccc(Cl)cc1Cl",
    "category-label": "no"
  },
  {
    "compound": "CNC(=O)CN(CC(=O)O)C(=O)NC",
    "category-label": "no"
  },
  {
    "compound": "CN1CCN(CN2C(=O)C3C4C=CC(C3C2=O)C2C3C(=O)N(CN5CCN(C)CC5)C(=O)C3C42)CC1 (stereo unspecified)",
    "category-label": "no"
  },
  {
    "compound": "O=C1N[C@H]2c3c(Cl)sc(Cl)c3/C(=N/O)[C@H]2O1",
    "category-label": "no"
  },
  {
    "compound": "CCOC(=O)c1cc2cc(C)cc(C(=O)c3ccc([N+](=O)[O-])cc3)c2[nH]1",
    "category-label": "no"
  },
  {
    "compound": "C[C@@]12CCCc3coc(c31)C(=O)c1cc3c(cc12)C(=O)C=CC3=O",
    "category-label": "no"
  },
  {
    "compound": "c1ccc(N2CCN(CCCN3CCc4c([nH]c5ccccc45)C3c3cccnc3)CC2)cc1 (stereo unspecified)",
    "category-label": "no"
  },
  {
    "compound": "C/C(=C\\CNc1nc(Cl)nc2[nH]cnc12)CO",
    "category-label": "no"
  },
  {
    "compound": "O=NNc1cnc(O)nc1O",
    "category-label": "no"
  },
  {
    "compound": "C/C(=N\\NC(=S)Nc1ccc(C(=O)O)cc1)c1ccccn1",
    "category-label": "no"
  },
  {
    "compound": "CO/C(=N\\N=C\\c1ccc(Cl)cc1)c1ccncc1",
    "category-label": "no"
  },
  {
    "compound": "COc1cc2c3cc1Oc1c(O)c(OC)cc4c1C(Cc1ccc(O)c(c1)Oc1ccc(cc1)CC3N(C)CC2)N(C)CC4 (stereo unspecified)",
    "category-label": "no"
  },
  {
    "compound": "NCc1ccc(-c2ccc(-c3ccc(-c4ccc(CN)s4)s3)s2)s1",
    "category-label": "no"
  },
  {
    "compound": "O=C(CC1(O)C(=O)Nc2c(Cl)cc(Cl)cc21)c1ccc(Br)cc1Br (stereo unspecified)",
    "category-label": "no"
  },
  {
    "compound": "CN(CCCN=C=S)CCCN1c2ccccc2CCc2ccccc21",
    "category-label": "no"
  },
  {
    "compound": "N#CC1=C(N2CCCC2)NC(=O)CC1=O",
    "category-label": "no"
  },
  {
    "compound": "S=P1(Oc2ccccc2)NNP2(=NP(N3CC3)(N3CC3)=NP(N3CC3)(N3CC3)=N2)NN1 (stereo unspecified)",
    "category-label": "no"
  }
]

====

# GI50 per record follows
tested on: EKVX; experiment: NCI tumour cell line growth inhibition, 48 h
Active and inactive are the calls of the source. No stated cut-off is given here; in the data, active = GI50 up to about 1.1 µM and inactive = higher.

[
  {
    "compound": "O=C1CC(C(COCc2ccccc2)OCc2ccccc2)CC(=O)N1 (stereo unspecified)",
    "GI50": "> 100 µM (inactive)"
  },
  {
    "compound": "CCOc1cccc2[s+]snc12",
    "GI50": "> 100 µM (inactive)"
  },
  {
    "compound": "COc1cc2c3cc1Oc1c(O)c(OC)cc4c1C(Cc1ccc(O)c(c1)Oc1ccc(cc1)CC3N(C)CC2)N(C)CC4 (stereo unspecified)",
    "GI50": "21.9 µM (inactive)"
  },
  {
    "compound": "CO/C(=N\\N=C\\c1ccc(Cl)cc1)c1ccncc1",
    "GI50": "> 100 µM (inactive)"
  },
  {
    "compound": "N#CC1=C(N)OC2=C(CCCc3ccc([N+](=O)[O-])cc32)C1c1ccc(Cl)cc1 (stereo unspecified)",
    "GI50": "4.43 µM (inactive)"
  },
  {
    "compound": "C#CCOC(=O)C(N)CCCNC(=N)N (stereo unspecified)",
    "GI50": "> 100 µM (inactive)"
  }
]

====

test system: SR; assay: NCI tumour cell line growth inhibition, 48 h
Calls of active or inactive are those of the source. No stated cut-off is given here; in the data, active = GI50 up to about 1.1 µM and inactive = higher.
readout-kind: GI50

[
  {
    "compound": "N#CCN1CCOCCOCCN(CC#N)CCOCCOCC1",
    "recorded-measurement": "> 100 µM (inactive)"
  },
  {
    "compound": "CC1(C)CC[C@]2(C(=O)O)CC[C@]3(C)[C@H](C(=O)C=C4[C@@]5(C)C=C(C#N)C(=O)C(C)(C)[C@@H]5CC[C@]43C)[C@@H]2C1",
    "recorded-measurement": "0.0561 µM (active)"
  },
  {
    "compound": "COc1ccc2c3c([nH]c2c1)-c1nc2ccccc2c(=O)n1CC3",
    "recorded-measurement": "> 25 µM (inactive)"
  },
  {
    "compound": "CCC(=O)C12OC3OC(C)(C)OC3C1OC(C)(C)O2 (stereo not given)",
    "recorded-measurement": "> 100 µM (inactive)"
  },
  {
    "compound": "C#CCOCn1cnc2ncnc(Cl)c21",
    "recorded-measurement": "> 100 µM (inactive)"
  },
  {
    "compound": "Nc1nc(Cl)c(N)c(NCC2(CO)CCCC2)n1",
    "recorded-measurement": "> 100 µM (inactive)"
  },
  {
    "compound": "CC1=C(C(=O)NCc2ccccc2)C(c2ccccc2O)C(C(=O)NCc2ccccc2)=C(C)N1",
    "recorded-measurement": "28.9 µM (inactive)"
  },
  {
    "compound": "CC(/C=C/c1ccccc1)=N\\N=C(C)\\C=C\\c1ccccc1",
    "recorded-measurement": "> 100 µM (inactive)"
  },
  {
    "compound": "CC1CCN(c2cc(-c3cc4ccccc4o3)oc(=O)c2C#N)CC1",
    "recorded-measurement": "> 100 µM (inactive)"
  },
  {
    "compound": "CC1(C)C[C@H](O)[C@H](O)[C@]23C(=O)O[C@H](O)[C@H]2C(C=O)=CC[C@@H]13",
    "recorded-measurement": "> 100 µM (inactive)"
  },
  {
    "compound": "CN(C)Cc1cc(/N=N/c2ccccc2Cl)cc(CN(C)C)c1O",
    "recorded-measurement": "45.2 µM (inactive)"
  },
  {
    "compound": "CCOC(=O)C(C(=O)OCC)c1ccc([N+](=O)[O-])o1",
    "recorded-measurement": "6.93 µM (inactive)"
  },
  {
    "compound": "CC(=O)OCc1nnn2c1C(OC(C)=O)CC2 (stereo not given)",
    "recorded-measurement": "> 100 µM (inactive)"
  },
  {
    "compound": "O=C1CC[C@@]2(O)[C@H]3Cc4ccc(-c5cccc(O)c5)c5c4[C@@]2(CCN3CC2CC2)[C@H]1O5",
    "recorded-measurement": "26.3 µM (inactive)"
  },
  {
    "compound": "C/C=C/[C@H]1O[C@@](OC)([C@@H](C)[C@H](O)[C@H](C)[C@H]2OC(=O)/C(OC)=C/C(C)=C/[C@@H](C)[C@@H](O)[C@@H](C)[C@@H](O)[C@H](C)C/C(C)=C/C=C/[C@@H]2OC)CC(OC2CC(O)C(OC(N)=O)C(C)O2)[C@@H]1C (stereo not given in full)",
    "recorded-measurement": "< 0.01 µM (active)"
  },
  {
    "compound": "CC(C)(C1=NC(C(C)(C)C)CO1)C1=N[C@@H](C(C)(C)C)CO1 (stereo not given in full)",
    "recorded-measurement": "> 100 µM (inactive)"
  },
  {
    "compound": "C=CCn1c(=O)ccn(/C(=C/C(=O)OCC)C(=O)OCC)c1=O",
    "recorded-measurement": "6.4 µM (inactive)"
  },
  {
    "compound": "O=C(CC(O)(C(F)(F)F)C(F)(F)F)C(c1ccccc1)C(O)(C(F)(F)F)C(F)(F)F (stereo not given)",
    "recorded-measurement": "9.31 µM (inactive)"
  },
  {
    "compound": "CC(C)=CCC/C(C)=C/C=C/C(C)=C/C=C/C(C)=C/C=C/C=C(C)/C=C/C=C(C)/C=C/[C@H]1C(C(C)(C)O)CC[C@]1(C)O (stereo not given in full)",
    "recorded-measurement": "23 µM (inactive)"
  },
  {
    "compound": "O=C(Nc1cccc(F)c1)c1cc2ccc(O)cc2o/c1=N\\c1cccc(F)c1",
    "recorded-measurement": "4.5 µM (inactive)"
  },
  {
    "compound": "O/N=C/c1ncccc1C1OCCO1",
    "recorded-measurement": "> 100 µM (inactive)"
  },
  {
    "compound": "Nc1c(-c2ccccc2[N+](=O)[O-])nc2ccccn12",
    "recorded-measurement": "> 100 µM (inactive)"
  },
  {
    "compound": "CC(C)(C)c1cc(Cc2ccc(S(C)(=O)=O)cc2)c(O)c(C(C)(C)C)c1",
    "recorded-measurement": "13.2 µM (inactive)"
  },
  {
    "compound": "O=C1/C(=C/c2ccc(Cl)cc2)Sc2scc(-c3cccc([N+](=O)[O-])c3)[n+]21",
    "recorded-measurement": "0.296 µM (active)"
  },
  {
    "compound": "CC(=O)Oc1c2oc3cc(O)c(O)cc3c2c(OC(C)=O)c2oc3cc(O)c(O)cc3c12",
    "recorded-measurement": "4.4 µM (inactive)"
  },
  {
    "compound": "c1ccc(-c2csc3c2-n2cccc2C3N2CCCC2)cc1 (stereo not given)",
    "recorded-measurement": "57.7 µM (inactive)"
  },
  {
    "compound": "Cc1cn(CCCCC2=NCCCN2)c(=O)[nH]c1=O",
    "recorded-measurement": "> 28.9 µM (inactive)"
  },
  {
    "compound": "O=C(CN1CCOCC1)NC1=Nc2ncccc2C(=O)NN1",
    "recorded-measurement": "> 10 µM (inactive)"
  },
  {
    "compound": "C=CCOc1ccc(C2c3c(n[nH]c3O)CC(C)(O)C2C(=O)OC)cc1OC (stereo not given)",
    "recorded-measurement": "> 100 µM (inactive)"
  },
  {
    "compound": "CCOC(=O)CN1C(=O)C(=O)N(c2ccc(OC)c3ccccc23)C1=O",
    "recorded-measurement": "> 100 µM (inactive)"
  },
  {
    "compound": "N/N=C1/CCCc2nonc21",
    "recorded-measurement": "> 100 µM (inactive)"
  },
  {
    "compound": "CCOC(=O)Nn1c(CC#N)nnc1Cc1ccccc1",
    "recorded-measurement": "> 100 µM (inactive)"
  },
  {
    "compound": "S=C1C=C(c2ccccc2)Sc2ccccc2N1",
    "recorded-measurement": "> 100 µM (inactive)"
  },
  {
    "compound": "COC(=O)c1ccccc1C1CN=NC12Cc1ccc(C)cc1C2=O (stereo not given)",
    "recorded-measurement": "63.8 µM (inactive)"
  },
  {
    "compound": "CN(CCN(C)C(=S)NN)C(=S)NN",
    "recorded-measurement": "> 100 µM (inactive)"
  },
  {
    "compound": "C=C1[C@H](OC(=O)C(C)C)[C@]23CC4(O)[C@@H]5[C@@]6(C)CCC[C@]57C([C@@H]2C[C@@]1(O)[C@H](O)[C@@H]73)N4C6",
    "recorded-measurement": "> 100 µM (inactive)"
  },
  {
    "compound": "COc1ccc(C2C(Cl)C(=O)N2n2cnc3ccccc3c2=O)cc1OC (stereo not given)",
    "recorded-measurement": "38.7 µM (inactive)"
  },
  {
    "compound": "O=C1NC2NC3NC(=O)NC3NC2N1 (stereo not given)",
    "recorded-measurement": "> 100 µM (inactive)"
  },
  {
    "compound": "CCOc1ccc(C(c2c(O)c3ccccc3oc2=O)c2c(O)c3ccccc3oc2=O)cc1",
    "recorded-measurement": "26 µM (inactive)"
  },
  {
    "compound": "c1ncn(C23C4C5C6C4C2C6C53)n1 (stereo not given)",
    "recorded-measurement": "> 100 µM (inactive)"
  }
]
